experimental target: BRD protein (Homo sapiens, UniProt O60885)
Construct: endogenous in cells; host or cells: MV-4-11
test name: Reduction of bromodomain protein (BRD) expression levels in MV-4-11 cells (Western blot, DC50 and Dmax)
Format: cell-based
measurement conditions: MV4-11, 24 hours of treatment, 0.1, 1, 10 and 20 µM, BRD4 Western blot, GAPDH internal reference
Procedure: The human […] MV-4-11 cells selected in this experiment were cultured in Iscove's Modified Dulbecco's Medium (IMDM) culture medium containing 10% fetal bovine serum (Gibco, USA) in an incubator under the conditions of at 37°C, 5% CO2 and 95% humidity. […] The concentration of the protein in the extract was detected by using a BCA method. […]
measurement label: Dmax

# example entries with known answers
Cc1sc2c(c1C)C(c1ccc(Cl)cc1)=N[C@@H](CC(=O)NCCOCC(=O)N1CCN(c3nnc(C4CCC(=O)NC4=O)c4c3CCCC4)CC1)c1nnc(C)n1-2 (stereo partly drawn) | < 50%
Cc1sc2c(c1C)C(c1ccc(Cl)cc1)=N[C@@H](CC(=O)NCCCCC(=O)N1CCN(c3ccc(C4CCC(=O)NC4=O)nn3)CC1)c1nnc(C)n1-2 (stereo partly drawn) | < 50%
Cc1sc2c(c1C)C(c1ccc(Cl)cc1)=N[C@@H](CC(=O)NCCCCNC(=O)COc1ccc(C3CCC(=O)NC3=O)nn1)c1nnc(C)n1-2 (stereo partly drawn) | < 50%
Cc1sc2c(c1C)C(c1ccc(Cl)cc1)=N[C@@H](CC(=O)NCCOCC(=O)N1CCN(c3ccc(N4CCC(=O)NC4=O)nn3)CC1)c1nnc(C)n1-2 | 50 to 85%
Cc1sc2c(c1C)C(c1ccc(Cl)cc1)=N[C@@H](CC(=O)NCCCCCNC(=O)COc1ccc(C3CCC(=O)NC3=O)nn1)c1nnc(C)n1-2 (stereo partly drawn) | > 85%

Provide the documented Dmax with BRD protein (Homo sapiens, UniProt O60885) as the system for Cc1sc2c(c1C)C(c1ccc(Cl)cc1)=N[C@@H](CC(=O)NCCCn1ccc(C#Cc3ccc(C4CCC(=O)NC4=O)nn3)n1)c1nnc(C)n1-2 (stereo partly drawn)
50 to 85%

====

experimental target: BRD protein (Homo sapiens)
Construct: endogenous in cells; host or cells: MV-4-11
test name: Reduction of bromodomain protein (BRD) expression levels in MV-4-11 cells (Western blot, DC50 and Dmax)
Assay type: cell-based
measurement conditions: 24 hours of treatment, 0.1, 1, 10 and 20 µM, BRD4 Western blot, GAPDH internal reference
Here the recorded DC50 is given for each entry.

Consider the following illustrative entries.
Cc1sc2c(c1C)C(c1ccc(Cl)cc1)=N[C@@H](CC(=O)NCCCCCNC(=O)COc1ccc(C3CCC(=O)NC3=O)nn1)c1nnc(C)n1-2 (stereo partly drawn) | < 1 µM
Cc1sc2c(c1C)C(c1ccc(Cl)cc1)=N[C@@H](CC(=O)NCCCCNC(=O)COc1ccc(C3CCC(=O)NC3=O)nn1)c1nnc(C)n1-2 (stereo partly drawn) | 1 to 10 µM
Cc1sc2c(c1C)C(c1ccc(Cl)cc1)=N[C@@H](CC(=O)NCCCC(=O)N1CCN(c3ccc(C4CCC(=O)NC4=O)nn3)CC1)c1nnc(C)n1-2 (stereo partly drawn) | 1 to 10 µM
Cc1sc2c(c1C)C(c1ccc(Cl)cc1)=N[C@@H](CC(=O)NCCOCC(=O)N1CCN(c3nnc(C4CCC(=O)NC4=O)c4ccccc34)CC1)c1nnc(C)n1-2 (stereo partly drawn) | > 10 µM
Cc1sc2c(c1C)C(c1ccc(Cl)cc1)=N[C@@H](CC(=O)NCCCCC(=O)N1CCN(c3ccc(C4CCC(=O)NC4=O)nn3)CC1)c1nnc(C)n1-2 (stereo partly drawn) | 1 to 10 µM

Reported DC50, compound Cc1sc2c(c1C)C(c1ccc(Cl)cc1)=N[C@@H](CC(=O)NCCCCCCNC(=O)COc1ccc(C3CCC(=O)NC3=O)nn1)c1nnc(C)n1-2 (stereo partly drawn) : ____
1 to 10 µM
